Origin of the recorded values: patent US8461328B2

- Target Desc: JAK3 (Homo sapiens, UniProt P52333)
- Construct: made in house; host or cells: SF9 insect cells (baculovirus)
- Sequence (P52333 783-1124): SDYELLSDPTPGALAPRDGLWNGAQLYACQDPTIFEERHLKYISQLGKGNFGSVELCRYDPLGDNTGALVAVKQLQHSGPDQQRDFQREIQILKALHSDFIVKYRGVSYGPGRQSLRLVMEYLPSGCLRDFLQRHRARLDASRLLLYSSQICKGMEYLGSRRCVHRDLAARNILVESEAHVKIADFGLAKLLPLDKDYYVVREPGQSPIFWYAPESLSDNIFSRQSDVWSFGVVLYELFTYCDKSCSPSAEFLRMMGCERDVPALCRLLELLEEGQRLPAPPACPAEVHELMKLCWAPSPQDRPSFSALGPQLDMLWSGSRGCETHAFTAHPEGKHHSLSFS
- Assay Overview: JAK3 inhibition (Table 4)
- Assay type: biochemical
- Stated Conditions: read-out: JAK3 Ki
Observable: pKi
Scale: negative log10 of molar concentration, which is what pKi denotes.

Compound | Target Desc | Observed
FCCN1CCC(n2cnc3cnc4[nH]ccc4c32)CC1 [Example 212] | JAK3 (Homo sapiens, UniProt P52333) | 7.23
OCc1nc2cnc3[nH]ccc3c2n1C1CCN(Cc2ccccc2)CC1(F)F (racemic) [Example 947] | JAK3 (Homo sapiens, UniProt P52333) | 8.67
c1cc(N2CCC[C@@H](n3cnc4cnc5[nH]ccc5c43)C2)ncn1 [Example 14] | JAK3 (Homo sapiens, UniProt P52333) | 7.58

Reported pKi ( CC(C)CC(=O)N1CCC(n2cnc3cnc4[nH]ccc4c32)CC1 [Example 83] ) = 5.91

get_value(item= CC(O)c1nc2cnc3[nH]ccc3c2n1C1CCNCC1 (racemic) [Example 291] , readout=pKi) returns 6.14

Input O=S(=O)(CCO)N1CCC(n2cnc3cnc4[nH]ccc4c32)CC1 [Example 194] . Output pKi: 6.55
